Tested on: Aureobasidium pullulans (APUL)
Assay: Minimum inhibitory concentration (MIC), broth two-fold serial dilution test
Format: cell-based
Settings: Aureobasidium pullulans, IIIB, trypticase soy broth (complex media); Table IIIb; read-out: MIC (F) APUL
measurement-label: MIC

Below: 4 compounds and their reported MIC.
{"structure": "C/C=C/C=C/C(=O)NCC(=O)OCC#CI", "MIC": "4 µg/mL"}
{"structure": "CCCCCCCC(=O)NCC(=O)OCC#CI", "MIC": "8 µg/mL"}
{"structure": "CC(=O)NCC(=O)OCC#CI", "MIC": "4 µg/mL"}
{"structure": "O=C(CNC(=O)OCc1ccccc1)OCC#CI", "MIC": "4 µg/mL"}

Kindly review the next compound as well.
# MIC measured on Aureobasidium pullulans (APUL) for item O=CNCC(=O)OCC#CI = 8 µg/mL

====

System: MON
Assay: In-vitro plant fungicide test
Type: cell-based
Conditions: .8 ppm; Table IVb; read-out: % Control at (ppm) indicated MON
Counter-ions that a name gives are not always drawn.
measurement-label: inhibition of growth at 0.8 ppm

{"compound": "O=C(CN1C(=O)c2ccccc2C1=O)OCC#CI", "inhibition of growth at 0.8 ppm": "100%"}
{"compound": "CC(C)(C)OC(=O)NCC(=O)OCC#CI", "inhibition of growth at 0.8 ppm": "0%"}
{"compound": "CC(=O)NCC(=O)OCC#CI", "inhibition of growth at 0.8 ppm": "0%"}

Per the record, C[C@H](N)C(=O)N[C@@H](COCc1ccccc1)C(=O)OCC#CI [Compound 19, trifluoroacetate] has inhibition of growth at 0.8 ppm of 0%

====

inhibition of growth at 1.5 ppm by entry:
Tested on: Fusarium roseum (FUS)
Test: In-vitro plant fungicide test
Assay type: cell-based
Conditions: Fusarium sambucinum, read-out: % Control at (ppm) indicated FUS, 1.5 ppm; Table IVb
Counter-ions that a name gives are not always drawn.
// return numeric value only (unit: %, not printed)

Below: 3 compounds and their reported inhibition of growth at 1.5 ppm.
{"compound": "CC(C)(C)OC(=O)NCC(=O)OCC#CI", "readout-value": 0}
{"compound": "CC(=O)NCC(=O)OCC#CI", "readout-value": 0}
{"compound": "O=C(CN1C(=O)c2ccccc2C1=O)OCC#CI", "readout-value": 0}

Kindly review the next compound as well.
Per the record, C[C@H](N)C(=O)N[C@@H](COCc1ccccc1)C(=O)OCC#CI [Compound 19, trifluoroacetate] has inhibition of growth at 1.5 ppm of 0

====

Tested on: Piricularia oryzae (PIR)
Assay: microbe, parasite or virus in culture
Assay type: cell-based
Conditions: 1.5 ppm; read-out: % Control at (ppm) indicated PIR
Structures can show the parent of a compound that is named as a salt.
inhibition of growth at 1.5 ppm by entry:
Hi, when you answer, please include the unit after the number. Thanks!

Below: 2 compounds and their reported inhibition of growth at 1.5 ppm.
{"compound": "CC(=O)NCC(=O)OCC#CI", "inhibition of growth at 1.5 ppm": "0%"}
{"compound": "O=C(CN1C(=O)c2ccccc2C1=O)OCC#CI", "inhibition of growth at 1.5 ppm": "100%"}

Per the record, C[C@H](N)C(=O)N[C@@H](COCc1ccccc1)C(=O)OCC#CI [Compound 19, trifluoroacetate] has inhibition of growth at 1.5 ppm of 0%

Per the record, CC(C)(C)OC(=O)NCC(=O)OCC#CI has inhibition of growth at 1.5 ppm of 50%
